# Tested on: Mycoplasmoides pneumoniae
# assay_notes: Antimicrobial activity against macrolide-resistant Mycoplasma pneumoniae harboring A2063G transition in domain V of 23S rRNA isolated from pediatric patients with community-acquired pneumonia after 10 to 14 days by microdilution method
# Assay type: functional
In this section, each of the compounds is paired with its reported MIC90.
Kindly provide the numeric value in µg/mL only, without the unit symbol.

- mol: "CN(C)c1ccc(O)c2c1C[C@H]1C[C@H]3[C@H](N(C)C)C(O)=C(C(N)=O)C(=O)[C@@]3(O)C(O)=C1C2=O"
  tgt: "Mycoplasmoides pneumoniae"
  observable: "MIC90"
  obs_value: 1

Kindly review the next compound as well.
Mycoplasmoides pneumoniae MIC90 of CC[C@H]1OC(=O)[C@H](C)[C@@H](O[C@H]2C[C@@](C)(OC)[C@@H](O)[C@H](C)O2)[C@H](C)[C@@H](O[C@@H]2O[C@H](C)C[C@H](N(C)C)[C@H]2O)[C@](C)(O)C[C@@H](C)CN(C)[C@H](C)[C@@H](O)[C@]1(C)O is 64

---

# Tested on: Mycoplasmoides pneumoniae
# assay_notes: Antimicrobial activity against macrolide-susceptible Mycoplasma pneumoniae isolated from pediatric patients with community-acquired pneumonia after 10 to 14 days by microdilution method
# Type: functional
observable: MIC50

Lab book: MIC50 of CO[C@@H]1[C@@H](O[C@@H]2O[C@H](C)[C@@H](O[C@H]3C[C@@](C)(O)[C@@H](OC(=O)CC(C)C)[C@H](C)O3)[C@H](N(C)C)[C@H]2O)[C@@H](CC=O)C[C@@H](C)[C@@H](O)/C=C/C=C/C[C@@H](C)OC(=O)C[C@H]1OC(C)=O [JOSAMYCIN] noted as 0.0313 µg/mL

Lab book: MIC50 of CCCC(=O)O[C@H]1[C@H](C)O[C@@H](O[C@H]2[C@H](N(C)C)[C@@H](O)[C@H](O[C@H]3[C@@H](CC=O)C[C@@H](C)[C@@H](O)/C=C/C=C/C[C@@H](C)OC(=O)C[C@@H](O)[C@@H]3OC)O[C@@H]2C)C[C@@]1(C)OC(=O)CC [ROKITAMYCIN] noted as 0.0156 µg/mL

Lab book: MIC50 of CC[C@H]1OC(=O)[C@H](C)[C@@H](O[C@H]2C[C@@](C)(OC)[C@@H](O)[C@H](C)O2)[C@H](C)[C@@H](O[C@@H]2O[C@H](C)C[C@H](N(C)C)[C@H]2O)[C@](C)(O)C[C@@H](C)C(=O)[C@H](C)[C@@H](O)[C@]1(C)O [ERYTHROMYCIN] noted as 0.0078 µg/mL

Lab book: MIC50 of C[C@H]1COc2c(N3CCN(C)CC3)c(F)cc3c(=O)c(C(=O)O)cn1c23.C[C@H]1COc2c(N3CCN(C)CC3)c(F)cc3c(=O)c(C(=O)O)cn1c23.O [LEVOFLOXACIN] noted as 0.5 µg/mL

Lab book: MIC50 of CC[C@H]1OC(=O)[C@H](C)[C@@H](O[C@H]2C[C@@](C)(OC)[C@@H](O)[C@H](C)O2)[C@H](C)[C@@H](O[C@@H]2O[C@H](C)C[C@H](N(C)C)[C@H]2O)[C@](C)(O)C[C@@H](C)CN(C)[C@H](C)[C@@H](O)[C@]1(C)O [AZITHROMYCIN] noted as 0.00049 µg/mL

Lab book: MIC50 of CN(C)c1ccc(O)c2c1C[C@H]1C[C@H]3[C@H](N(C)C)C(O)=C(C(N)=O)C(=O)[C@@]3(O)C(O)=C1C2=O [MINOCYCLINE] noted as 0.5 µg/mL

Lab book: MIC50 of CC[C@H]1OC(=O)[C@H](C)C(=O)[C@H](C)[C@@H](O[C@@H]2O[C@H](C)C[C@H](N(C)C)[C@H]2O)[C@](C)(OC)C[C@@H](C)C(=O)[C@H](C)[C@H]2N(CCCCn3cnc(-c4cccnc4)c3)C(=O)O[C@]12C [TELITHROMYCIN] noted as 0.00098 µg/mL

Lab book: MIC50 of CC[C@H]1OC(=O)[C@H](C)[C@@H](O[C@H]2C[C@@](C)(OC)[C@@H](O)[C@H](C)O2)[C@H](C)[C@@H](O[C@@H]2O[C@H](C)C[C@H](N(C)C)[C@H]2O)[C@](C)(OC)C[C@@H](C)C(=O)[C@H](C)[C@@H](O)[C@]1(C)O [CLARITHROMYCIN] noted as 0.0039 µg/mL
